These entries and their values trace back to paper PMC5540273.

Items are presented alongside their recorded %Inh.
- Tested on: PIP5K2C;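 note: KINOMEscan kinase panel screen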
- Construct: gene PIP4K2C
- CONDITION_LABEL: concentration: 1 μM, replicates: in singlicate; n = 1
MEASURED_PROPERTY: %Inh (%)

MOLECULE	TARGET_OF_ASSAY	MEASURED_PROPERTY	MEASURED_RESULT
COc1cc(Nc2nccc(N3CCC(NC(=O)C(C)c4ccc(Cl)cc4)C3)n2)cc(OC)c1OC (stereo not shown)	PIP5K2C	%Inh	79
CCS(=O)(=O)c1ccc(OC)c(Nc2ncc(-c3ccc(F)cc3)o2)c1.Cl	PIP5K2C	%Inh	2
CCC(=O)c1c(-c2ccccc2)c2cc(Cl)ccc2c(=O)n1Cc1cc(S(C)(=O)=O)n(CCC(C)(C)O)n1	PIP5K2C	%Inh	0
O=C1NC(=O)C(c2ccccc2)=C1Nc1cccc(O)c1	PIP5K2C	%Inh	0
COc1cc(Nc2nccc(N3CCC(NC(=O)C4COc5ccccc5O4)C3)n2)cc(OC)c1OC (stereo not shown)	PIP5K2C	%Inh	89
Cc1ccc(Oc2ccc(Nc3ncnc4cc[nH]c34)cc2C)cn1	PIP5K2C	%Inh	0
CCc1nc(-c2cccc(C)c2)c(-c2ccncc2)s1	PIP5K2C	%Inh	25
Fc1cccc(CSc2nnc(-c3ccc4c(c3)CCO4)o2)c1	PIP5K2C	%Inh	0
Cc1cc(Nc2nc(-c3cccc(C)n3)nc3ccccc23)ccn1	PIP5K2C	%Inh	0
COc1cccc(C2=C(N(C)c3ccccc3)C(=O)NC2=O)c1	PIP5K2C	%Inh	30
CCCNC(=O)Nc1ccc(Oc2ncnc3ccn(C)c23)cc1	PIP5K2C	%Inh	27
CC(C)(C)c1ccc(C(=O)Nc2cn3cc(-c4ccccc4)ccc3n2)cc1	PIP5K2C	%Inh	54
C[C@@H]1CC[C@H](C(=O)NC2CCCCC2)CN1c1cc(-c2ccc3c(N)n[nH]c3c2)nc(N)n1	PIP5K2C	%Inh	30
